Assay: soluble on expression in E. coli; label from the status in PepcDB or PDB records

{"sequence-text": "MRCPNCNSLDTQVKDSRPTEDSSVIRRRRVCIACNFRFTTFERVQLRELIVIKRNGRRVPFDRDKLMRSVQISLRKRPVDPERVEQMVSAIVRELESGGEAEISSETIGESVMDHLRKLDDVAYVRFASVYRNFREAKDFEAVLGELSHEDEARAALVRK", "soluble on expression in E. coli": "not soluble"}
{"sequence-text": "ICTTICPYGRLQGVLLDKNSINVAYDYIRGERRGHLKRGEDREIAGKGDCIDCHQCVHVCPTGIDIRNGVQMECINCTACIDEC", "soluble on expression in E. coli": "not soluble"}
{"sequence-text": "DVLAVTSCPSGVAHTFLAAKSLEKAACALGIKIKVETQGANGVINRITEKDIEKAKFVIFAHDVAIKEPERFRKIKVLDVTTKDAMLNATALLQARRVS", "soluble on expression in E. coli": "not soluble"}

---

Test: soluble on expression in E. coli; label from the status in PepcDB or PDB records
measure-name: soluble on expression in E. coli

{"sequence-text": "MGHHHHHHSHSMGVRSMATFVKTADVSILIDPGVSLAPKRYRLPPHRIEIERMNQKWEEIKEMMKKAEVAIITHYHYDHHDPNEVEIFSGKKLLLKHPTEKINRSQKGRAAYFLEQLKSVDVEIDYCDGKSYEFGNTVVELSKPVFHGADSRLGFVVEVYVEDGKSSFLFSSDVEGPNNEEQLAFMLEKSAEVVFIDGPMTYMLGYRFSQKSFESSVENLKRLIAEDVKTLVLDH", "soluble on expression in E. coli": "soluble"}
{"sequence-text": "MLVVLAISLAVTAVCAQYGSGPANNPPASSYSSNVYYPPPVYGSVYWDYDSGSREHRHKQCPRLRAYVGEFPGIPEEAFYPPIIRYVKYNRKVTALVVCDRDEKNLNFLFARHNKTRDVRSASVVAIGSTAGVTLVCNRDDRRYEGFVIDMNATTNGFSKKIEITQLTCLGLDKTIIGLPVEHGVQQLAQKIQEILEDDFFVPVIPSRRKRQAGGATANSAESTTEAADTESTTEAAATETPAAESTTTEASATDAAATEASATDAAATEGAVTKAAAGVTEESATEVITVATTPASPDAALNNAINELGKILGQVF", "soluble on expression in E. coli": "not soluble"}
{"sequence-text": "MESKIPAIEKHRDAYVKIRIIESLDELALGLKLLKEGFSRNSANKVFQSWKAIISALTVINLEKMPRNEKEKEWYYKSGFLAPTTGLKGISQRLEELGYKVNSLTSVALELHRYAYNGLYKGASDYYEREEAINDIIYLSKEIMKVIKEFFKEYWDEEIEEHYNLAEKELMKLEHHHHHH", "soluble on expression in E. coli": "not soluble"}
{"sequence-text": "MEEERQQSPLEGLSEEALKHVHQLDEPIPIELQASYFRLSAEMRRRGIQLSENEVQDAEQLLFDPVLSDDIKKMTLLRLAITGNITVFRIIERYLESAPDSMRPWALMAQLEARIGILSDLVDEKQLVITSGLGGHDGMMRFMAFLHTDKLQDFEHYQEELIEKELLYRIGKASGEVERLEMHNNYLLLTFLVPINYDLRNFFSSFIAECNQFGHFLSTTFIITNTQLLTPQGAQVALKKYAEENDLPATN", "soluble on expression in E. coli": "not soluble"}
{"sequence-text": "MESDPMFIGFGYDRHPLVEGRRLVLAGVEIDAPLGSLGHSDGDVLSHAIIDALLGAGCLGDIGTWFPETKEYKDANSLDLLKETVKILEERGFSVVNVDATVVASIVKLSPYREKIVENLKSALETSRVNVKFKSGNTLGFEGEERGISAYAVCLVEEKGCTKST", "soluble on expression in E. coli": "not soluble"}

Turning now to a further record.
Please report the recorded soluble on expression in E. coli for MSLSLLVIGSLAFDDIETPFGRSDNTLGGSSTYIALSASYFTDEPIRMVGVVGSDFGKEHFDLLHAKNIDTRGIQVIEDGKTFRWAGRYHYDMNTRDTLDTQLNVFAEFDPHVPQYYRDSKFVCLGNIDPELQLKVLDQIDDPKLVVCDTMNFWIEGKPEELKKVLARVDVFIVNDSEARLLSGDPNLVKTARIIREMGPKTLIIKKGEHGALLFTDNGIFAAPAFPLESIYDPTGAGDTFAGGFIGHLARCGNTSEAEMRKAVLYGSAMASFCVEQFGPYRYNDLDLLEVDDRYQSFLELSRIEEGHHHHHH .
soluble

---

Assay: soluble on expression in E. coli; label from the status in PepcDB or PDB records
measure-name: soluble on expression in E. coli

{"sequence-text": "MGSDKIHHHHHHVKIRLALPQDVDLLAMLEKKHLNDELASANMGLQGQAFSHSELSELVQRHWVVVAQVEQQIVGYVIAGRWGFFEHWPIYRTLLNRLGQLDWDGPKLTKTNSCQYGPIWVQQAYRGQGIFEALVSEIRRQVAPHFSYMLTFIAEDNERSFAAHSGKAHMQVVDFFTVSARDYYLMAAKTQA", "measure-name": "soluble on expression in E. coli", "result": "not soluble"}
{"sequence-text": "MAHHHHHHMTEYALSLYVTLPSSFPKAAPRATMPYCCHNVPITPPNINPSEALAYQWSSTTSTLVEAVRNAFQNAADCWGPVEPPSMRSVTLQLSGETDRLLQDLVTNPNCLDAYCYQLPIVKLMREASRHTVSEIERVANENTTLRNEVETLEAQVKDLQRYLDEQVSQLQQLEQNRLLLSVGTPEALIKTLEDDVRRMSSDCMTLGRRALDAYKADKGGFQDLLKQYKAQSKATHMLDLKRLSYRAQCAAS", "measure-name": "soluble on expression in E. coli", "result": "not soluble"}

---

Assay: soluble on expression in E. coli; label from the status in PepcDB or PDB records
measure-name: soluble on expression in E. coli

Illustrative cases are given below, each with its answer.
{"sequence-text": "MGIHLFWDSRVPVGLSRPVSEELSAVLEMPVSRIDDGIFPLEGFDPVRNQYDAVKVLLKLDMFRRRMPQIFKPADMDLEFYNKFNHLHEKILLVTPGDLYEPLADFVFGLAYPKLGVAIVSPHRLQNEFYGKYADDSALIDRIVKEGAHEIGHLFGLGHCDNPGCIMYCPRNLDELDRKRKYFCGKCRVQLNGDTLEDDLFSLEHHHHHH", "result": "soluble"}
{"sequence-text": "MVDYDKQMKTWIRSQHLICVGSDFIFETVDQTQLDKFETCIRGMGGRIRTVKAVGNWPMGPRRSFKILQATASVPRPGGEALVTYWAKKGSKTTRYSEISS", "result": "soluble"}
{"sequence-text": "MGSDKIHHHHHHMVLIRLRPCSAVEKDLIHACSPSASALVSKNEKAMKRFFLTTAILLSSVLASYADSLPSAVRDTVIRAGEKTIMIKDGEDDFEVIIQESMPSGDTIRNEKIFRGVYRNGRSIEQRFRNTLINRPNRDKEMPVWGTYGFGSFEWGELKVDDSHSDIGRSHSYRVSIQIFGDIYRLNKYLVLTYALGWDADIYRITDSKTLKNIDGVTTVVDVPGRAECTLTAAYLKAMPALAFNGVRSNLTVYIAPVLRAKVYSAATTDGPDGRLEKLRRVKLNTFSVEARAGINYRNAGIFFTYSLTPLFRSGKGPKLHPYTIGLSLSL", "result": "not soluble"}
{"sequence-text": "MGYDVTRFQGDVDEDLICPICSGVLEEPVQAPHCEHAFCNACITQWFSQQQTCPVDRSVVTVAHLRPVPRIMRNMLSKLQIACDNAVFGCSAVVRLDNLMSHLSDCEHNPKRPVTCEQGCGLEMPKDELPNHNCIKHLRSVVQQQQSRIAELEKTSAEHKHQLAEQKRDIQLLKAYMRAIRSVNPNLQNLEETIEYNEILEWVNSLQPARVTRWGGMISTPDAVLQAVIKRSLVESGCPASIVNELIENAHERSWPQGLATLETRQMNRRYYENYVAERIPGKQAVVVMACENQHMGDDMVQEPGLVMIFAHGVEEI", "result": "soluble"}

Please report the recorded soluble on expression in E. coli for LDFGALPPEINSGRMYCGPGSGPMLAAAAAWDGVAVELGLAATGYASVIAELTGAPWVGAASLSMVAAATPYVAWLSQAAARAEQAGMQAAAAAAAYEAAFVMTVPPPVITANRVLVMTLIATNFFGQNSAAIAVAEAQYAEMWAQDAVAMYGYAAASASASRLIPFAAPPKTTNSAGVVAQVAAVAAMPGLLQRLSSAASVSWSNPNDWWLVRLLGSITPTERTTIVRLLGQSYFATGMAQFFASIAQQLTFGPGGTTAGSGGAWYPTPQFAGLGASRAVSASLARANKIGALSVPPSWVKTTALTESPVAHAVSANPTVGSSHGPHGLLRGLPLGSRITRRSGAFAHRYGFRHSVVARPPSAG .
not soluble

Continue with MGSDKIHHHHHHMAQIIVVTSGKGGVGKTTSSAAIATGLALKGKKTVVIDFDIGLRNLDLIMGCERRVVYDFVNVINGEANLNQALIKDKRCDKLFILPASQTRDKDALTKEGVGRVLENLAKDFDYIVCDSPAGIEQGAMMALYFADIAIVTTNPEVSSVRDSDRILGMLQSRSRRAELSLEPIKEYLLLTRYSPARVKTGEMLSVEDVKEILAIELLGVIPESQSVLKASNSGVPVIIDQESDAGLAYGDTVARLLGDDVPVRFITEEKKGFLKRIFGS
not soluble

Taken from the DeepSol protein solubility set.
